Data provenance: patent US20060287509A1

Target: T1, c-erbB-2 ECD with a Ser-Gly-His6 C-terminal fusion (UniProt P04626 23-652)
T1 construct: extracellular domain; expressed from CHO cells, IMAC purified; coupled to a CM5 chip, adsorbed to polystyrene, or biotinylated and captured on avidin; also called c-erbB-2 extracellular domain; biotinylated c-erbB-2 ECD
Test: SPR (BIAcore)
kon values by entry

C6ML3-14 (scFv, C6.5 with this VL CDR3; C-terminal myc and His6 tags) scFv: QVQLLQSGAELKKPGESLKISCKGSGYSFTSYWIAWVRQMPGKGLEYMGLIYPGDSDTKYSPSFQGQVTISVDKSVSTAYLQWSSLKPSDSAVYFCARHDVGYCSSSNCAKWPEYFQHWGQGTLVTVSSGGGGSGGGGSGGGGSQSVLTQPPSVSAAPGQKVTISCSGSSSNIGNNYVSWYQQLPGTAPKLLIYGHTNRPAGVPDRFSGSKSGTSASLAISGFRSEDEADYYCAAWDDPLWGWVFGGGTKLTVLG ... 770000 M⁻¹ s⁻¹

Consider C6ML3-4 (scFv, C6.5 with this VL CDR3; C-terminal myc and His6 tags) scFv: QVQLLQSGAELKKPGESLKISCKGSGYSFTSYWIAWVRQMPGKGLEYMGLIYPGDSDTKYSPSFQGQVTISVDKSVSTAYLQWSSLKPSDSAVYFCARHDVGYCSSSNCAKWPEYFQHWGQGTLVTVSSGGGGSGGGGSGGGGSQSVLTQPPSVSAAPGQKVTISCSGSSSNIGNNYVSWYQQLPGTAPKLLIYGHTNRPAGVPDRFSGSKSGTSASLAISGFRSEDEADYYCASWEYSLWGWVFGGGTKLTVLG . Its measured kon is 400000 M⁻¹ s⁻¹
